src = patent US12319655B2

experimental_system: C-Raf kinase (SEQ. ID NO: 3) (Homo sapiens (Human), UniProt P04049, Y340D/Y341D)
Sequence (P04049 307-648 Y340D/Y341D): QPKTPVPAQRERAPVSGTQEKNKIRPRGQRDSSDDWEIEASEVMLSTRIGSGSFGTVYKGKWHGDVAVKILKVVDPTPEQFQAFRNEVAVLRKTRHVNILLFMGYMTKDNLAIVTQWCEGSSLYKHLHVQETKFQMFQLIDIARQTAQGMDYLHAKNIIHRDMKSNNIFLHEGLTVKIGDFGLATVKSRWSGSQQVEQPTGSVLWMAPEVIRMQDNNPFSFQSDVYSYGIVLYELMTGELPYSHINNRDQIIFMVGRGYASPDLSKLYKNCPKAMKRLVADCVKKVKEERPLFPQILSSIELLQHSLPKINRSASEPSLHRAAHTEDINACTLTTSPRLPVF
protocol_details: Biochemical Assay for C-Raf (1)
measurement_parameters: Table J, assay version (1); read-out: CRAF (1) IC50
measured_parameter: IC50

>>> result("CNC(=O)c1cc(-c2cc(-c3cc(NC(=O)c4ccnc(C(C)(C)C#N)c4)c(F)cc3C)ccn2)ccn1")
"≤ 100 nM"
>>> result("CC(=O)Nc1cc(-c2cncc(-c3cc(C(=O)Nc4cnn(C(C)C)c4)ccc3C)n2)ccn1")
"≤ 100 nM"
>>> result("CNC(=O)c1cc(-c2cc(-c3cc(NC(=O)c4ccnc(C(F)(F)F)c4)cnc3C)ccn2)ccn1")
"≤ 100 nM"
>>> result("Cc1ncc(NC(=O)C2CCOC(C)(C)C2)cc1-c1cccc(-c2cc(NC(=O)C3CC3)ncn2)c1 (centres unmarked)")
"≤ 100 nM"
>>> result("Cc1cc(F)c(NC(=O)c2ccnc(C(C)(C)F)c2)cc1-c1cncc(-c2ccnc(NC(=O)C3CC3)c2)n1")
"≤ 100 nM"
>>> result("CNC(=O)c1cc(-c2cc(-c3cc(NC(=O)c4ccnc(C(F)(F)F)c4)ccc3C)nn(C)c2=O)ccn1")
"1000 to 10000 nM"
>>> result("CCOc1ncc(-c2cc(NC(=O)c3ccnc(C(C)(C)C#N)c3)ccc2C)cc1-c1ccnc(C(=O)NC)c1")
"≤ 100 nM"
>>> result("CC(=O)Nc1cc(-c2cncc(-c3cc(NC(=O)c4cccc(C(C)(C)C#N)c4)ccc3C)n2)ccn1")
"≤ 100 nM"
>>> result("Cc1ncc(NC(=O)c2ccnc(C(C)(C)C#N)c2)cc1-c1cccc(-c2cc(NC(=O)C3CC3)ncn2)c1")
"≤ 100 nM"
>>> result("CNC(=O)c1cc(-c2cc(-c3cc(NC(=O)c4cc(C(F)(F)F)ccn4)ccc3C)ccn2)ccn1")
"≤ 100 nM"
>>> result("Cc1ccc(NC(=O)c2ccnc(C(C)(C)C#N)c2)cc1-c1cncc(-c2ccnc(C(=O)NC3CC3)c2)n1")
"100 to 500 nM"
>>> result("Cc1ccc(NC(=O)c2ccnc(C3CC3)c2)cc1-c1cncc(-c2ccnc(NC(=O)C3CC3)c2)n1")
"≤ 100 nM"
>>> result("Cc1ncc(NC(=O)c2ccnc(C(C)(C)C#N)c2)cc1-c1ccnc(-c2ccnc(NC(=O)C3CC3)c2)n1")
"≤ 100 nM"
>>> result("Cc1ccc(NC(=O)c2ccnc(C(C)(C)C#N)c2)cc1-c1ccnc(-c2ccnc(NC(=O)CC#N)c2)c1")
"≤ 100 nM"
>>> result("CNC(=O)c1cc(-c2cnnc(-c3cc(NC(=O)c4ccnc(C(C)(C)C#N)c4)ccc3C)c2)ccn1")
"100 to 500 nM"
>>> result("Cc1cc(F)c(NC(=O)c2cnnc(C3CC3)c2)cc1-c1nccc(-c2ccnc(NC(=O)C3CC3)c2)n1")
"≤ 100 nM"
>>> result("Cc1ccc(NC(=O)c2ccnc(C3CC3)c2)cc1-c1cc(-c2ccnc(NC(=O)C3CC3)c2)cnn1")
"≤ 100 nM"
>>> result("CNC(=O)c1cc(-c2cc(-c3cc(NC(=O)CCC(C)(C)C#N)ccc3C)ccn2)ccn1")
"≤ 100 nM"
>>> result("Cc1ccc(NC(=O)c2ccnc(C(F)(F)F)c2)cc1-c1ccnc(-c2cncnc2)c1")
"≤ 100 nM"
>>> result("Cc1ccc(NC(=O)c2ccnc(C(C)(C)C#N)c2)cc1-c1ccnc(-c2ccnc(NC(=O)C3(C)CC3)c2)n1")
"≤ 100 nM"
>>> result("COC(=O)Nc1cc(-c2cnnc(-c3cc(NC(=O)CC4CCCC4)cnc3C)c2)ccn1")
"1000 to 10000 nM"
>>> result("Cc1ncc(NC(=O)c2ccnc(C(C)(C)C#N)c2)cc1-c1cccc(-c2cc(NC(=O)C3CC3)ncn2)n1")
"500 to 1000 nM"
>>> result("Cc1ncc(NC(=O)c2ccnc(C(C)(C)C#N)c2)cc1-c1ccnc(-c2ccnc(NC(=O)C(C)(C)C#N)c2)c1")
"100 to 500 nM"
>>> result("Cc1ncc(NC(=O)c2ccnc(C(C)(C)C#N)c2)cc1-c1nccc(-c2ccnc3c2CC(=O)N3)n1")
"500 to 1000 nM"
>>> result("Cc1ncc(NC(=O)c2ccnc(C3CC3)c2)cc1-c1cnc(C)c(-c2ccnc(NC(=O)C3CC3)c2)c1")
"≤ 100 nM"
>>> result("Cc1ccc(NC(=O)c2ccnc(C(C)(C)C#N)c2)cc1-c1ccnc(-c2ccnc(N)c2)c1")
"≤ 100 nM"
>>> result("CNC(=O)c1cc(-c2cncc(-c3cc(NC(=O)c4ccnc(C(F)(F)F)c4)ccc3C)n2)ccn1")
"≤ 100 nM"
>>> result("CNC(=O)c1cc(-c2cccc(-c3cc(NC(=O)c4cccc(C)c4)cnc3C)c2)ccn1")
"≤ 100 nM"
>>> result("Cc1ccc(NC(=O)c2cnnc(C3CC3)c2)cc1-c1ccnc(-c2ccnc(NC(=O)C3CC3)c2)n1")
"≤ 100 nM"

====

experimental_system: C-Raf kinase (SEQ. ID NO: 3) (Homo sapiens (Human), UniProt P04049, Y340D/Y341D)
protocol_details: Biochemical Assay for C-Raf (1)
measurement_parameters: Table J, assay version (1); read-out: CRAF (1) IC50
# IC50 listing for each entry below
measured_parameter: IC50

>>> result("CC(=O)Nc1cc(-c2cc(-c3cc(NC(=O)c4ccnc(C(F)(F)F)c4)ccc3C)cc(OCCO)n2)ccn1")
"≤ 100 nM"
>>> result("Cc1ccc(NC(=O)c2ccnc(C(F)(F)F)c2)cc1-c1ccnc(-c2ccnc3c2CC(=O)N3)c1")
"≤ 100 nM"
>>> result("CCOc1cc(-c2cc(NC(=O)c3ccnc(C(F)(F)F)c3)ccc2C)cc(-c2ccnc(NC(C)=O)c2)n1")
"≤ 100 nM"
>>> result("Cc1ccc(NC(=O)c2ccnc(C(C)(C)C#N)c2)cc1-c1cncc(-c2cc(NC(=O)C3CC3)ncn2)c1")
"≤ 100 nM"
>>> result("Cc1ncc(NC(=O)C2CNCCO2)cc1-c1cccc(-c2cc(NC(=O)C3CC3)ncn2)c1 (stereo not shown)")
"1000 to 10000 nM"
>>> result("COC(C)(C)C(=O)Nc1cc(-c2cccc(-c3cc(NC(=O)c4ccnc(C(C)(C)C#N)c4)ccc3C)c2)ncn1")
"500 to 1000 nM"
>>> result("CNC(=O)c1cc(-c2cc(-c3cc(C(=O)Nc4ccnc(C(F)(F)F)c4)ccc3C)ccn2)ccn1")
"≤ 100 nM"

====

# pIC50 listing for each entry below
experimental_system: A-Raf kinase (SEQ. ID No: 1) (Homo sapiens (Human), UniProt P10398, Y301D/Y302D)
Sequence (P10398 other isoform, or with tags, fused parts or gaps Y301D (already in the parent)/Y302D (already in the parent)): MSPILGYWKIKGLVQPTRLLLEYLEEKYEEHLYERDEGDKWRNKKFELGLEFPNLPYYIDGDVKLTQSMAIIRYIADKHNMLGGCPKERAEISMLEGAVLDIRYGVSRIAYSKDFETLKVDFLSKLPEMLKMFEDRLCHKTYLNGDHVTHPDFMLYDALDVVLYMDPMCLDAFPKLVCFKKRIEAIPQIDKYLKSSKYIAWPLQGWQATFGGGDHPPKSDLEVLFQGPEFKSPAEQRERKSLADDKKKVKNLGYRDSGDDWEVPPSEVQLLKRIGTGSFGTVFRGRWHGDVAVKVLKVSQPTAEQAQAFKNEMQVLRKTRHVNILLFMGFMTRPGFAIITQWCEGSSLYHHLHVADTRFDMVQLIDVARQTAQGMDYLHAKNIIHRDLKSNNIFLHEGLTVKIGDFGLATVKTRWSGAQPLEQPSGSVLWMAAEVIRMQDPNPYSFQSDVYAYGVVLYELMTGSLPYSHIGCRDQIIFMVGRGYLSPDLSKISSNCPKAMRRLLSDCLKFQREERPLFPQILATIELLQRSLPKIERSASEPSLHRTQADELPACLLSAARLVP
protocol_details: Biochemical Assay for A-Raf (1)
measurement_parameters: Table J, assay version (1); read-out: ARAF (1) IC50
pIC50: −log10 of the molar value.
measured_parameter: pIC50

>>> result("Cc1cc(F)c(NC(=O)c2ccnc(C(F)F)c2)cc1-c1cncc(-c2ccnc(NC(=O)C3CC3)c2)n1")
"6.00 to 6.30"
>>> result("Cc1nc(-c2ccnc(NC(=O)C3CC3)c2)cc(-c2cc(NC(=O)c3ccnc(C4CC4)c3)cnc2C)n1")
"5.00 to 6.00"
>>> result("CNC(=O)c1cc(-c2cc(-c3cc(NC(=O)c4cccc(C(C)(C)C#N)c4)ccc3C)cc(OCCO)n2)ccn1")
"5.00 to 6.00"
>>> result("Cc1ncc(NC(=O)c2ccnc(C(C)(C)C#N)c2)cc1-c1cccc(-c2cc(NC(=O)C3CC3)ncn2)c1")
"5.00 to 6.00"
>>> result("CNC(=O)c1cc(-c2cnnc(-c3cc(NC(=O)c4ccnc(C(C)(C)C#N)c4)cnc3C)c2)ccn1")
"5.00 to 6.00"
>>> result("Cc1ccc(NC(=O)c2ccnc(C(F)(F)F)c2)cc1-c1cccc(-c2cc(NC(=O)C3CC3)ncn2)c1")
"5.00 to 6.00"
>>> result("Cc1ncc(NC(=O)c2ccnc(C(C)(C)F)c2)cc1-c1cccc(-c2cc(NC(=O)C3CC3)ncn2)c1")
"6.00 to 6.30"
>>> result("Cc1ccc(NC(=O)c2ccnc(C(C)(C)C#N)c2)cc1-c1cccc(-c2ccnc(NC(=O)C3CC3)c2)c1")
"6.00 to 6.30"
>>> result("CC(=O)Nc1cc(-c2cc(-c3cc(NC(=O)c4ccnc(C(C)(C)C#N)c4)ccc3C)nc(C)n2)ccn1")
"5.00 to 6.00"
>>> result("Cc1ncc(NC(=O)c2ccnc(C(F)(F)F)c2)cc1-c1cccc(-c2ccnc(N)c2)c1")
"5.00 to 6.00"
>>> result("Cc1ccc(NC(=O)c2ccnc(C(C)(C)C#N)c2)cc1-c1cccc(-c2cc(NC(=O)C3(F)CC3)ncn2)c1")
"5.00 to 6.00"
>>> result("Cc1ncc(NC(=O)C2CCOC2)cc1-c1nccc(-c2ccnc(NC(=O)C3CC3)c2)n1 (stereo not drawn)")
"5.00 to 6.00"
>>> result("CNC(=O)c1cc(-c2cc(-c3cc(NC(=O)c4ccnc(C(F)(F)F)c4)cnc3C)ccn2)ccn1")
"5.00 to 6.00"
>>> result("CNC(=O)c1cc(-c2cc(-c3cc(NC(=O)c4cccc(C(F)(F)F)c4)cnc3C)ccn2)ccn1")
"5.00 to 6.00"
>>> result("Cc1nc(-c2ccnc(NC(=O)C3CC3)c2)cc(-c2cc(NC(=O)c3ccnc(C4(C#N)CC4)c3)cnc2C)n1")
"5.00 to 6.00"
